target: opioid receptor subtype κ (Homo sapiens); experiment: biochemical; format: binding; conditions: test concentration 10^−5 mol/L; [3H]Diprenorphine 0.4 nM; mean±SE; read-out: Inhibition percentage of competitive binding, κ
Sequence (P41145 whole entry): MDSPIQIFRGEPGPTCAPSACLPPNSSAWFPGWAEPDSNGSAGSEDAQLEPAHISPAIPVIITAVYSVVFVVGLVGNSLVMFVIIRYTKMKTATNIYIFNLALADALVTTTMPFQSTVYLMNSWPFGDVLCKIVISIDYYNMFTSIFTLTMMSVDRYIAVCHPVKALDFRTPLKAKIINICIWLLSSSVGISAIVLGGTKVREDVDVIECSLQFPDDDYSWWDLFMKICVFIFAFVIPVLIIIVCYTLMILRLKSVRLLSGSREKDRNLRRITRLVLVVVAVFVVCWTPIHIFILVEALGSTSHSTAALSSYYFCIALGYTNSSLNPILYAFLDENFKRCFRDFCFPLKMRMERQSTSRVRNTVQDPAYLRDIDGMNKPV
experimental_endpoint: inhibition at 10 µM (%)
Report as a plain number; the unit % is understood.

Ask | What value of inhibition at 10 µM has been recorded for this entry: COc1ccccc1N1CCN([C@H](C)[C@H](O)c2ccccc2)CC1 [III-2]
Reply | 40

Ask | inhibition at 10 µM lookup needed for COc1ccccc1N1CCN([C@@H](C)[C@H](O)c2ccc3c(c2)CC(=O)N3)CC1 (racemic) , thanks.
Reply | 5.3

Ask | Fill in: inhibition at 10 µM of COc1ccccc1N1CCN([C@H](C)[C@H](O)c2ccccc2)CC1 (racemic) [Compound I-20] is ___
Reply | 8.9

Ask | # input compound: C[C@@H]([C@H](O)c1ccccc1)N1CCN(c2cccc(C(F)(F)F)c2)CC1 (racemic) ; wanted: its inhibition at 10 µM
Reply | 2.7

Ask | Could you tell me which inhibition at 10 µM is on file for `COc1ccccc1N1CCN([C@@H](C)[C@@H](O)c2ccccc2)CC1` ?
Reply | 36.5
